System: Caco-2 cells (clone C2BBe1); further: unit not given here
Conditions: human, Caco-2
Recorded measurements of Caco2 B to A, one per entry

Solved cases below.
>>> reported("CC(C)C(=O)OC[C@H]1O[C@@](C#N)(c2ccc3c(N)ncnn23)[C@@H]2OC(=O)CCCC(=O)O[C@@H]21")
2.98
>>> reported("CC(C)OC(=O)OC[C@H]1O[C@@](C#N)(c2ccc3c(N)ncnn23)[C@@H]2OC(=O)CCCC(=O)O[C@@H]21")
7.32
>>> reported("CC(C)OC(=O)OC[C@H]1O[C@@](C#N)(c2ccc3c(N)ncnn23)[C@@H]2OC(=O)OCCCCCCOC(=O)O[C@@H]21")
15.92

Problem: For `CC(C)OC(=O)OC[C@H]1O[C@@](C#N)(c2ccc3c(N)ncnn23)[C@@H]2OC(=O)CC(C)(C)CC(=O)O[C@@H]21` , what is its reported Caco2 B to A?
Solution: 7.3

Problem: For `CC(C)OC(=O)OC[C@H]1O[C@@](C#N)(c2ccc3c(N)ncnn23)[C@@H]2OC(=O)CCCCCC(=O)O[C@@H]21` , what is its reported Caco2 B to A?
Solution: 11.68

Problem: For `CC(C)(OC(=O)OC[C@H]1O[C@@](C#N)(c2ccc3c(N)ncnn23)[C@@H]2OC(=O)CCCC(=O)O[C@@H]21)c1ccncc1` , what is its reported Caco2 B to A?
Solution: 15.86

* * *

Recorded measurements of Caco2 A to B, one per entry
Test system: Caco-2 cells (clone C2BBe1); further: unit not given here
Settings: human, Caco-2
Just the number, please, no unit after it.

Solved cases below.
>>> reported("COC(=O)[C@H]([C@@H](C)OC(=O)OC[C@H]1O[C@@](C#N)(c2ccc3c(N)ncnn23)[C@@H]2OC(=O)CC(C)(C)CC(=O)O[C@@H]21)N(C)C")
0.22
>>> reported("COC(=O)[C@H]([C@@H](C)OC(=O)OC[C@H]1O[C@@](C#N)(c2ccc3c(N)ncnn23)[C@@H]2OC(=O)CCCC(=O)O[C@@H]21)N(C)C [Compound C31, 2,2,2-trifluoroacetate]")
0.49
>>> reported("N#C[C@@]1(c2ccc3c(N)ncnn23)O[C@H](COC(=O)OC2CCOC2)[C@H]2OC(=O)CCCC(=O)O[C@H]21 (stereo partly drawn)")
0.66
>>> reported("COC(C)(C)COC(=O)OC[C@H]1O[C@@](C#N)(c2ccc3c(N)ncnn23)[C@@H]2OC(=O)CCCC(=O)O[C@@H]21")
0.88
>>> reported("CCOC(=O)C(C)(C)OC(=O)OC[C@H]1O[C@@](C#N)(c2ccc3c(N)ncnn23)[C@@H]2OC(=O)CC(C)(C)CC(=O)O[C@@H]21")
2.93

Problem: For `CCOC(=O)OC[C@H]1O[C@@](C#N)(c2ccc3c(N)ncnn23)[C@@H]2OC(=O)CC(C)(C)CC(=O)O[C@@H]21` , what is its reported Caco2 A to B?
Solution: 4.27

Problem: For `CCOC(=O)OC[C@H]1O[C@@](C#N)(c2ccc3c(N)ncnn23)[C@@H]2OC(=O)CCCC(=O)O[C@@H]21` , what is its reported Caco2 A to B?
Solution: 1.94

Problem: For `CC1(C)CC(=O)O[C@H]2[C@@H](OC(=O)C1)[C@](C#N)(c1ccc3c(N)ncnn13)O[C@@H]2COC(=O)OC1CCOCC1` , what is its reported Caco2 A to B?
Solution: 0.41

Problem: For CC1(C)CC(=O)O[C@H]2[C@@H](OC(=O)C1)[C@](C#N)(c1ccc3c(N)ncnn13)O[C@@H]2COC(=O)OC1CCOC1 (stereo partly drawn) , what is its reported Caco2 A to B?
Solution: 0.69

Problem: For `CC(C)C(=O)OC[C@H]1O[C@@](C#N)(c2ccc3c(N)ncnn23)[C@@H]2OC(=O)CCCC(=O)O[C@@H]21` , what is its reported Caco2 A to B?
Solution: 1

Problem: For `CC(C)OC(=O)OC[C@H]1O[C@@](C#N)(c2ccc3c(N)ncnn23)[C@@H]2OC(=O)CC(C)(C)CC(=O)O[C@@H]21` , what is its reported Caco2 A to B?
Solution: 5.9

Problem: For `CC(C)OC(=O)OC[C@H]1O[C@@](C#N)(c2ccc3c(N)ncnn23)[C@@H]2OC(=O)CCCCCC(=O)O[C@@H]21` , what is its reported Caco2 A to B?
Solution: 11.12
